Biological target: T1, human CD3 E&D complex protein (Sino Biological Inc., CT026H0323H) (human, UniProt P07766 23-126; P04234 22-105)
T1 construct: bought heterodimer; also called human CD3 protein (CT026H0323H)
T1 sequence (P07766 23-126, chain 1 of 2): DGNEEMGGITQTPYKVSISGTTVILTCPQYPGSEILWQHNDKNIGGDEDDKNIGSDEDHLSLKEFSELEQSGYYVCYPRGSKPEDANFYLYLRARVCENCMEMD
T1 sequence (P04234 22-105, chain 2 of 2): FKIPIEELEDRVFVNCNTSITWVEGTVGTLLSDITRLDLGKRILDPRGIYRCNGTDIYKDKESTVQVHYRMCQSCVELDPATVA
Assay: BLI, antibody on sensor
This listing pairs binders with measured koff.
Give the value in s⁻¹ but do not write s⁻¹ after it.

These recorded examples may help you get a feel for the data.
{"BINDER": "hzsp34.18 (antibody, human IgG1, lambda, L234A L235A, V domains shown, IgG1 L234A L235A, lambda) VH: EVQLVESGGGLVQPGGSLKLSCAASGFTFNTYAMNWVRQASGKGLEWVGRIRSKYNNYATYYADSVKDRFTISRDDSKSTLYLQMNSLKTEDTAVYYCARHGNFGNSYVSWFAYWGQGTTVTVSS VL: QAVVTQEPSLTVSPGGTVTLTCRSSTGAVTTSNYANWVQQKPGQAPRGLIGGTNKRAPGVPARFSGSLLGGKAALTLLGAQPEDEAEYYCALWYSNLWVFGQGTKLTVLG", "koff (s⁻¹)": 0.00208}
{"BINDER": "hzsp34.20 (antibody, human IgG1, lambda, L234A L235A, V domains shown, IgG1 L234A L235A, lambda) VH: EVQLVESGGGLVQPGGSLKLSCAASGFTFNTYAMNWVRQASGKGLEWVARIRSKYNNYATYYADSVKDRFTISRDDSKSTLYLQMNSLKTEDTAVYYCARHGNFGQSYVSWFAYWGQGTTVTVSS VL: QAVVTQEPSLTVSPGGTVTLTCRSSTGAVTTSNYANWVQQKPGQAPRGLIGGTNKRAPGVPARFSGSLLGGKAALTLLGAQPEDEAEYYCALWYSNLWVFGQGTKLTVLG", "koff (s⁻¹)": 0.00275}
{"BINDER": "hzsp34.42 (antibody, human IgG1, kappa, L234A L235A, V domains shown, IgG1 L234A L235A, kappa) VH: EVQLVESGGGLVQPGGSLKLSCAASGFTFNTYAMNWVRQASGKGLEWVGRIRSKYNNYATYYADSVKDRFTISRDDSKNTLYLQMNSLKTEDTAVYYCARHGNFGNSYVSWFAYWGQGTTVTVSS VL: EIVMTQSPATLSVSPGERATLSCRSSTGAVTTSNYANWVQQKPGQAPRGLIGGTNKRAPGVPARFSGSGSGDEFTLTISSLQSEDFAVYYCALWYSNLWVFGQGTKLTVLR", "koff (s⁻¹)": 0.00526}
{"BINDER": "hzsp34.45 (antibody, human IgG1, kappa, L234A L235A, V domains shown, IgG1 L234A L235A, kappa) VH: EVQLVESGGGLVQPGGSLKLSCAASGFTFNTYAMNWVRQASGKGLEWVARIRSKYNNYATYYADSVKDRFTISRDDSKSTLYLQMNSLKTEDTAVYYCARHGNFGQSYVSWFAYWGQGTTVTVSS VL: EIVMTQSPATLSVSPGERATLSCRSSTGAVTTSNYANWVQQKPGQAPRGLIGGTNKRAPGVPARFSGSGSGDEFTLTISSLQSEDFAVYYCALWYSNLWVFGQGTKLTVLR", "koff (s⁻¹)": 0.0065}

Recorded koff (binder hzsp34.38 (antibody, human IgG1, kappa, L234A L235A, V domains shown, IgG1 L234A L235A, kappa) VH: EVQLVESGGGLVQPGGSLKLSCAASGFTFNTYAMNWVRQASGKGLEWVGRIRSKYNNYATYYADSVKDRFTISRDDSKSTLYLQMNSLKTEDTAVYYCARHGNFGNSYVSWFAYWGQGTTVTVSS VL: EIVMTQSPATLSVSPGERATLSCRSSTGAVTTSNYANWVQQKPGQAPRGLIGGTNKRAPGVPARFSGSGSGTEFTLTISSLQSEDFAVYYCALWYSNLWVFGQGTKLTVLR ): 0.00505

Notebook: hzsp34.13 (antibody, human IgG1, lambda, L234A L235A, V domains shown, IgG1 L234A L235A, lambda) VH: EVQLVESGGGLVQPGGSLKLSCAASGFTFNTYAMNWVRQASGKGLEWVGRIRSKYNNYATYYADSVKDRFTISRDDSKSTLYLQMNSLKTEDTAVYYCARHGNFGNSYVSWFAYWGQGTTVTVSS VL: QAVVTQEPSLTVSPGGTVTLTCRSSTGAVTTSNYANWVQQKPGQAPRTLIGGTNKRAPGVPARFSGSLLGGKAALTLLGAQPEDEAEYYCALWYSNLWVFGQGTKLTVLG , koff read as 0.00466

Quick note, koff for hzsp34.24 (antibody, human IgG1, lambda, L234A L235A, V domains shown, IgG1 L234A L235A, lambda; parent of the CDR mutants) VH: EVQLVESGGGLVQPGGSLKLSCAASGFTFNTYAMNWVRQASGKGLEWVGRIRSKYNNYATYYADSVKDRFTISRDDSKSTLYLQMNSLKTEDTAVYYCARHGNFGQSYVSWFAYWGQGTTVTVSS VL: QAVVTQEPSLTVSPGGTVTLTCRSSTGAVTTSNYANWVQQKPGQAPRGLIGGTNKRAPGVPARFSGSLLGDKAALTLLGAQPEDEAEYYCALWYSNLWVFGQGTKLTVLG landed at 0.00247

Entry sp34 (antibody, human IgG1, lambda, L234A L235A, V domains shown, mouse variable regions on human IgG1 L234A L235A and lambda constant regions; also called chimeric antibody sp34; mouse sp34) VH: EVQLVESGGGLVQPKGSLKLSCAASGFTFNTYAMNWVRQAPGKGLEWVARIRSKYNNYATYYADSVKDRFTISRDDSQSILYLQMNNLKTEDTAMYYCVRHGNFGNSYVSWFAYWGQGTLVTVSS VL: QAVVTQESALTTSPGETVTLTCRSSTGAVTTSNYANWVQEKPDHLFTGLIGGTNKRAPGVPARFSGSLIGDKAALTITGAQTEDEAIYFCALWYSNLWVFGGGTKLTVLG — recorded koff = 0.0019

For hzsp34.14 (antibody, human IgG1, lambda, L234A L235A, V domains shown, IgG1 L234A L235A, lambda) VH: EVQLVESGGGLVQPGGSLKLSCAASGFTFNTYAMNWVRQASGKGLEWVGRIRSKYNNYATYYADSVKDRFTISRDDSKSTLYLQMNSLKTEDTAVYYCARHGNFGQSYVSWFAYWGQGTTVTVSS VL: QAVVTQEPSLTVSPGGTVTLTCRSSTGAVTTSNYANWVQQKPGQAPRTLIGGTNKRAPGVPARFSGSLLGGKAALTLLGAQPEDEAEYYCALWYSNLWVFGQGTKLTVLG the binder record lists koff as 0.00159

Entry hzsp34.23 (antibody, human IgG1, lambda, L234A L235A, V domains shown, IgG1 L234A L235A, lambda) VH: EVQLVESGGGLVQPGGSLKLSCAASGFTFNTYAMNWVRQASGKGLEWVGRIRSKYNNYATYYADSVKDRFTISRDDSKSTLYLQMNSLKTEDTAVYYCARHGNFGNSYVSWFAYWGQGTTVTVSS VL: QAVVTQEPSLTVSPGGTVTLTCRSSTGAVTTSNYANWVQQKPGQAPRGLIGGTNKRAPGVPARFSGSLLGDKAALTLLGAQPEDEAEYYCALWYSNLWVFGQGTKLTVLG ; koff = 0.00198
